Tested on: SW-620 colon
protocol-text: NCI-60 one-dose screen, 48 h (100 = growth as untreated, 0 = no growth, -100 = all killed)
measurement-parameters: 10 µM unless noted
The panel holds about 83,000 compounds, 20% with a hit somewhere; the sample as a whole holds those more often.
measurement-kind: growth (%)
API: value field is a number in %; no unit string.

Per the record, O=C(O)CC1S/C(=N/N=C/c2nc3ccccc3s2)NC1=O (centres undefined) has growth of 104

Documented growth of O=C(Nc1ccc(Cl)c(C(F)(F)F)c1)N1CCN(c2cc(-c3cn(-c4ccccc4)nc3-c3cccc(O)c3)ccn2)CC1 : 16.6

The compound O=C(N/N=C/c1c[nH]c2ccccc12)Nc1ccccc1Cl showed growth equal to 26.1

The compound listed as N#C/C(=C/c1ccc([N+](=O)[O-])cc1)c1nnc(NC(=O)c2ccc(-n3c(=O)[nH]c4ccccc4c3=O)cc2)s1 shows growth equal to 100

Entry under test: COC(=O)c1cccc(Oc2ccc(NC(=O)Nc3cc(C(F)(F)F)ccc3F)cc2)c1 . Its growth was 89.7

Next:
The compound CCCCCCCOc1ccc(S(=O)(=O)Nc2ccc(C)c(F)c2C(=O)O)cc1 showed growth equal to 100

Briefly, growth measured for Oc1ccc(Cl)c(Nc2ncnc3c2cnn3CC(Cl)c2ccc(Br)cc2)c1 (centres undefined) : 67.1

Notebook: COc1ccc2[nH]c(=O)c(CSc3ccccc3Nc3nccc(-c4ccc5c(c4)OCO5)n3)cc2c1 , growth read as 106

For this compound ( COc1ccc2[nH]c(O)c(N=Nc3nc(-c4ccc(Cl)cc4)cs3)c2c1 ), measured growth is 2.98

* * *

Test system: ACHN renal
protocol-text: NCI-60 one-dose screen, 48 h (100 = growth as untreated, 0 = no growth, -100 = all killed)
measurement-parameters: 10 µM unless noted
Compounds without any hit were thinned out: in the full panel of roughly 83,000, 20% have a hit.
Attribute: growth
Express your answer in %, writing the number without its unit.

get_value(item= Cc1cc(C(NC(=O)CCCCCNc2cccc3c2C(=O)N(C2CCC(=O)CC2=O)C3=O)c2cccc(N(C)C)c2)c(O)c2ncccc12 (configuration not stated) , readout=growth) returns 14.7

Noted for CC[C@]12C=CCN3CC[C@]4(C(=C(C(=O)OC)C1)Nc1cc(OC)c([C@@H]5[C@H]6O[C@H]6[C@@]6(CC)CC(C(=O)OC)=C7Nc8cc(OC)ccc8[C@@]78CCN5[C@@H]68)cc14)[C@@H]32 : its growth reads 44

Briefly, growth measured for Fc1ccccc1CNc1nc(SCCN2CCOCC2)nc2c1cnn2CC(Cl)c1ccc(Br)cc1 (configuration not stated) : 25.1

Notebook: COc1ccc(CCC2NCCc3c(Br)c4c(c(OC)c32)OCO4)cc1 (configuration not stated) , growth read as 15.5

For record N#C/C(=C/c1ccc(Cl)cc1)c1nnc(NC(=O)c2ccc(-n3c(=O)[nH]c4ccccc4c3=O)cc2)s1 the listed growth is 84.3

Further cases:
Briefly, growth measured for CN1CCN(C(=O)Oc2cc3c(c4ccccc24)[C@H](CCl)CN3C(=O)c2cc3cc(OCCCN4CCC4)ccc3[nH]2)[C@@H]2CSSC[C@H]21 : -22.8

For this compound ( O=C(CSc1nnc(-c2ccc(-c3nc4ccccc4[nH]3)cc2)o1)Nc1ccc(Br)cc1 ), measured growth is -60.9

* * *

System: UACC-257 melanoma
protocol-text: NCI-60 one-dose screen, 48 h (100 = growth as untreated, 0 = no growth, -100 = all killed)
measurement-parameters: 10 µM unless noted
Compounds without any hit were thinned out: in the full panel of roughly 83,000, 20% have a hit.
Listed here are compounds together with their documented growth.
Entry rule: numbers only, all in %.

Some compounds with known growth results, for comparison:
get_value(item= O=C(COc1ccc(/C=C2/C(=O)Nc3ccc(Cl)cc32)cc1)Nc1ccc(Br)cc1 , readout=growth) returns 15.1

Consider COc1ccc(N=Nc2c(N)nn3c(-c4ccc([N+](=O)[O-])cc4)ccnc23)cc1 . Its measured growth is 97.3

For COc1c2c(c(Br)c3c1C(CCc1ccccc1)N(C)CC3)OCO2 (stereo not given) the compound record lists growth as 64.9

Sure, the documented growth for Oc1ccc(F)c(Nc2nc(SCCN3CCOCC3)nc3c2cnn3CC(Cl)c2ccc(Br)cc2)c1 (stereo not given) is 14.4

More entries:
Record COc1cc(C2CC(c3ccc(C(F)(F)F)cc3)=Nc3c(N)nc(N)nc3N2)ccc1Oc1nc(Nc2ccc(F)cc2)nc(N(C)C)n1 (stereo not given) , field growth: 50.3

* * *

Test system: RXF 393 renal
protocol-text: NCI-60 one-dose screen, 48 h
measurement-parameters: 10 µM unless noted
The panel holds about 83,000 compounds, 20% with a hit somewhere; the sample as a whole holds those more often. Activity calls are given as the source filed them. Rule for the calls: active = growth percent below 10; inactive = the rest.
Respond using exactly one of the listed classes: class 1 for active, class 0 for inactive

Before answering, review these 3 worked examples.
Q: Record request — test call for CNS(=O)(=O)N1CCc2c(Br)c3c(c(OC)c2C1CCc1ccccc1)OCO3 (stereo not given)
A: class 1

Q: Record request — test call for COc1ccc(N=Nc2c(N)nn3c(-c4ccc([N+](=O)[O-])cc4)ccnc23)cc1
A: class 0

Q: Called result for O=C1Nc2cc(-c3ccc(NS(=O)(=O)c4ccc([N+](=O)[O-])cc4)cc3)ccc2/C1=C/c1ccc[nH]1
A: class 1

More entries:
Q: Please state the recorded outcome for this compound: O=C(Nc1ccc(S(=O)(=O)N2CCCCC2)cc1)C(Cl)Cl
A: class 0

Q: For O=C(N/N=C/c1c[nH]c2ccccc12)Nc1ccc(F)c(Cl)c1 , what call appears in the results of this test?
A: class 0

* * *

Tested on: SF-295 CNS
protocol-text: NCI-60 one-dose screen, 48 h
measurement-parameters: 10 µM unless noted
Description: Cells are grown in 96 well plates and exposed to the test compound for 48 hours. Compounds are tested at a single concentration, which is 10^-5 M for most compounds. The reported endpoint is percent growth (GI% or GIPRCNT), where numbers from 0 - 100% represent growth inhibition, and numbers from -100% - 0 represent cell death. For example, a value of 40 represents 60% growth inhibition. A value of 0 means no net growth occurred over the course of the experiment. […]
This is part of a sample that, as a whole, favours compounds with a hit. Of some 83,000 tested, about 20% had one in any assay. The source made the active and inactive calls. The calls were made as follows: active = growth percent below 10; inactive = the rest.
Parameter call: string, one of 1.0 = active, 0.0 = inactive

Q: Which result was noted for this molecule in the test: O=C1Nc2cc(-c3ccc(NS(=O)(=O)c4ccc([N+](=O)[O-])cc4)cc3)ccc2/C1=C/c1ccc[nH]1
A: 1.0

Q: For COc1ccc2c(c1)c(-c1cc(N)n3nc(-c4c[nH]c5ccccc45)cc3n1)cn2C , which call appears in the assay record?
A: 1.0

Q: Could you please tell me the result logged for Cc1ccc(C(C(=O)NC2CCCCC2)N(Cc2ccccc2Cl)C(=O)c2ccc(CN3CCOCC3)o2)o1 (configuration not stated) in this assay?
A: 0.0

---
Q: Any idea what this test logged for COC(=O)c1c(C(=O)OC)c2ccc3c4ccccc4ccc3n2c1C(=O)C(C)Br (configuration not stated) ?
A: 0.0

Q: Would you mind telling me which call this test gave Cc1cc(C)c2[nH]c(=O)c(C(c3nnnn3Cc3ccc4c(c3)OCO4)N3CCN(C)CC3)cc2c1 (configuration not stated) ?
A: 0.0

Q: For CCN1C(=O)N(CC)C2NNC(Sc3c(C(=O)O)c4ccccc4n(CC(C)C)c3=O)=NC21 (configuration not stated) , which call appears in the assay record?
A: 1.0

Q: What is the recorded call for this molecule in the test? CN(C)c1nc(NCCNS(=O)(=O)c2ccc(C3=Nc4c(N)nc(N)nc4NC(c4ccc(C(F)(F)F)cc4)C3)cc2)nc(N2CCOCC2)n1 (configuration not stated)
A: 0.0

Q: Called result for Cc1ccccc1NC(=O)c1cccc(NC(=O)CCl)c1
A: 0.0

Q: Short answer needed: outcome of this test for COc1ccc(N=Nc2c(N)nn3c(N)c(C#N)c(-c4ccc(C)cc4)nc23)cc1 ?
A: 0.0

Q: Entry FC(F)(F)c1cc2c(Cl)ncnc2n1CCN1CCOCC1 : call = ?
A: 0.0

Q: What call does the record list for CCCCCCCCc1cccc(CC(=O)Nc2ccc(C)cc2C(=O)O)c1 ?
A: 0.0

Q: Please let me know the test result on file for c1ccc(CSc2nnc(-c3ccc4nc(-c5ccccc5)[nH]c4c3)o2)cc1 .
A: 0.0

Q: Which result was noted for this molecule in the test: O=C(N/N=C/c1occc1Br)c1[nH]c2ccc(Br)cc2c1-c1ccccc1
A: 1.0

Q: Kindly provide the recorded test outcome for the following molecule: Cc1ccc2c(c1)/C(=C/C(=O)c1cc3ccccc3oc1=O)C(=O)N2
A: 0.0

Q: # outcome recorded in this test, key = CNc1nc2ccccc2n2c(-c3ccc(O)c(O)c3)cnc12
A: 0.0

Q: Give the logged outcome of this assay for the following molecule: CC1=C(C(=O)OCc2ccccc2)C(c2ccc(N(C)C)cc2)n2c(nc3ccccc32)N1 (configuration not stated)
A: 0.0
